The origin of these recorded values is ChEMBL document CHEMBL1141677.

System: Staphylococcus
Assay: Antibacterial activity against methicillin-resistant coagulase-negative Staphylococcus clinical isolate after 18 hrs by agar dilution method
Type: functional
We begin with a simple list: items and their reported MIC.
measure.name: MIC (µg/mL)

INSERT INTO results (entry_smiles, measure_name, unit_abbrev, reported) VALUES
  ('O=C(C1CCCC1)N1CCN(c2ccc(N3C[C@H](Cn4ccnn4)OC3=O)cc2F)CC1', 'MIC', 'µg/mL', 1),
  ('CC(=O)N1CCN(c2ccc(N3C[C@H](Cn4ccnn4)OC3=O)cc2F)CC1', 'MIC', 'µg/mL', 0.25),
  ('CN[C@H](CC(C)C)C(=O)N[C@H]1C(=O)N[C@@H](CC(N)=O)C(=O)N[C@H]2C(=O)N[C@H]3C(=O)N[C@H](C(=O)N[C@H](C(=O)O)c4cc(O)cc(O)c4-c4cc3ccc4O)[C@H](O)c3ccc(c(Cl)c3)Oc3cc2cc(c3O[C@@H]2O[C@H](CO)[C@@H](O)[C@H](O)[C@H]2O[C@H]2C[C@](C)(N)[C@H](O)[C@H](C)O2)Oc2ccc(cc2Cl)[C@H]1O', 'MIC', 'µg/mL', 1),
  ('CCCCCCCC(=O)N1CCN(c2ccc(N3C[C@H](Cn4ccnn4)OC3=O)cc2F)CC1', 'MIC', 'µg/mL', 2);

----------
We begin with a simple list: items and their reported MIC.
Tested on: Enterococcus
Assay: Antibacterial activity against vancomycin-sensitive Enterococcus after 18 hrs by agar dilution method
Assay type: functional
measure.name: MIC (µg/mL)

INSERT INTO assay_data (molecule, system_tested, unit_abbrev, qualifier_operator, reported) VALUES
  ('CCCCCCCCCCC(=O)N1CCN(c2ccc(N3C[C@H](Cn4ccnn4)OC3=O)cc2F)CC1', 'Enterococcus', 'µg/mL', '>', 16),
  ('CCCCCCCCCC(=O)N1CCN(c2ccc(N3C[C@H](Cn4ccnn4)OC3=O)cc2F)CC1', 'Enterococcus', 'µg/mL', '>', 16),
  ('CCCCCCCCC(=O)N1CCN(c2ccc(N3C[C@H](Cn4ccnn4)OC3=O)cc2F)CC1', 'Enterococcus', 'µg/mL', '=', 8),
  ('CCCCCC(=O)N1CCN(c2ccc(N3C[C@H](Cn4ccnn4)OC3=O)cc2F)CC1', 'Enterococcus', 'µg/mL', '=', 4),
  ('O=C1O[C@@H](Cn2ccnn2)CN1c1ccc(N2CCOCC2)c(F)c1', 'Enterococcus', 'µg/mL', '=', 0.5),
  ('CCCCCCCC(=O)N1CCN(c2ccc(N3C[C@H](Cn4ccnn4)OC3=O)cc2F)CC1', 'Enterococcus', 'µg/mL', '=', 4),
  ('O=C(C1CCCC1)N1CCN(c2ccc(N3C[C@H](Cn4ccnn4)OC3=O)cc2F)CC1', 'Enterococcus', 'µg/mL', '=', 1),
  ('CC(=O)N1CCN(c2ccc(N3C[C@H](Cn4ccnn4)OC3=O)cc2F)CC1', 'Enterococcus', 'µg/mL', '=', 0.5),
  ('O=C(CC1CC2CCC1C2)N1CCN(c2ccc(N3C[C@H](Cn4ccnn4)OC3=O)cc2F)CC1 (stereo partly drawn)', 'Enterococcus', 'µg/mL', '=', 2),
  ('CCCCCCC(=O)N1CCN(c2ccc(N3C[C@H](Cn4ccnn4)OC3=O)cc2F)CC1', 'Enterococcus', 'µg/mL', '=', 4),
  ('CC(C)C(=O)N1CCN(c2ccc(N3C[C@H](Cn4ccnn4)OC3=O)cc2F)CC1', 'Enterococcus', 'µg/mL', '=', 1),
  ('CCCCCCCCCCCCCCCC(=O)N1CCN(c2ccc(N3C[C@H](Cn4ccnn4)OC3=O)cc2F)CC1', 'Enterococcus', 'µg/mL', '>', 16),
  ('CC(=O)NC[C@H]1CN(c2ccc(N3CCOCC3)c(F)c2)C(=O)O1 [LINEZOLID]', 'Enterococcus', 'µg/mL', '=', 0.5),
  ('CCCCCCCCCCCCCCCCCC(=O)N1CCN(c2ccc(N3C[C@H](Cn4ccnn4)OC3=O)cc2F)CC1', 'Enterococcus', 'µg/mL', '>', 16),
  ('CCC(=O)N1CCN(c2ccc(N3C[C@H](Cn4ccnn4)OC3=O)cc2F)CC1', 'Enterococcus', 'µg/mL', '=', 0.5),
  ('CCCCCCCCCCCCCC(=O)N1CCN(c2ccc(N3C[C@H](Cn4ccnn4)OC3=O)cc2F)CC1', 'Enterococcus', 'µg/mL', '>', 16),
  ('O=C(C1CCCCC1)N1CCN(c2ccc(N3C[C@H](Cn4ccnn4)OC3=O)cc2F)CC1', 'Enterococcus', 'µg/mL', '=', 1),
  ('CN[C@H](CC(C)C)C(=O)N[C@H]1C(=O)N[C@@H](CC(N)=O)C(=O)N[C@H]2C(=O)N[C@H]3C(=O)N[C@H](C(=O)N[C@H](C(=O)O)c4cc(O)cc(O)c4-c4cc3ccc4O)[C@H](O)c3ccc(c(Cl)c3)Oc3cc2cc(c3O[C@@H]2O[C@H](CO)[C@@H](O)[C@H](O)[C@H]2O[C@H]2C[C@](C)(N)[C@H](O)[C@H](C)O2)Oc2ccc(cc2Cl)[C@H]1O [VANCOMYCIN]', 'Enterococcus', 'µg/mL', '=', 0.25);
